Reported values of Var.EC50/HuIgG1 EC50 for individual entries
TEST SYSTEM: T1, rhesus CD11a (rhesus, UniProt H9Z8N3 26-1169)
T1 construct: whole, on cells; On rhesus peripheral blood lymphocytes or leukocytes; also called rhCD11a
T1 sequence: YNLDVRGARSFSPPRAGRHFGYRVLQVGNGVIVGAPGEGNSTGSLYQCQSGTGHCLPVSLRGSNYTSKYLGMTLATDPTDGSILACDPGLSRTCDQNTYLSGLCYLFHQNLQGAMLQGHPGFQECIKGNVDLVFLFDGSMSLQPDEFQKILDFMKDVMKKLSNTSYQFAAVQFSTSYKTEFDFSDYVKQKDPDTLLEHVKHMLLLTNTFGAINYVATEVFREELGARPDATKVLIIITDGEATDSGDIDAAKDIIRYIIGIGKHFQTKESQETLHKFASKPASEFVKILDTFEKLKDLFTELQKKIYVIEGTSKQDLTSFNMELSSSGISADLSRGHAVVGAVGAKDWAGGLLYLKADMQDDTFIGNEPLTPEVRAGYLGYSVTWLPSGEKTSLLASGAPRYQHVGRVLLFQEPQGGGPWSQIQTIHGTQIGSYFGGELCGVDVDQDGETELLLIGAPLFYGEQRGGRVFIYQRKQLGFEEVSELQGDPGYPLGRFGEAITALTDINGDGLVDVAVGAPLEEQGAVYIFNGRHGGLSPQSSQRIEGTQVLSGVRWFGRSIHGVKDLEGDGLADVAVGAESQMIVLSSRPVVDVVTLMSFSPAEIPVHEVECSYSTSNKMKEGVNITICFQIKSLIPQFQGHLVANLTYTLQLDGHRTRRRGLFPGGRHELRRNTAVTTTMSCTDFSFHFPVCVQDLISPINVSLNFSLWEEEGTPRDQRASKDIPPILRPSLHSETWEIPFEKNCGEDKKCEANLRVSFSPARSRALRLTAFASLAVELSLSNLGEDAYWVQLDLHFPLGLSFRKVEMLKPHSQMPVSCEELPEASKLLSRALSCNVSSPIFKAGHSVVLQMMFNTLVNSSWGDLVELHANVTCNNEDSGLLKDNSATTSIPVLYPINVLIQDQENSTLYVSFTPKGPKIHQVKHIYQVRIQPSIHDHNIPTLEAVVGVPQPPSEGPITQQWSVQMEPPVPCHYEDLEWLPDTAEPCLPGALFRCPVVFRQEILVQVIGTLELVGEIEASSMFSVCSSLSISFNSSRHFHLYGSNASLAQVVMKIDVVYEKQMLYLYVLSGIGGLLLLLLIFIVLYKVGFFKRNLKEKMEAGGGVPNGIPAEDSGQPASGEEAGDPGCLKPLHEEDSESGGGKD
METHOD: rhesus PBL binding
Give just the numeric value; ratio need not be written.

[[record]]
binder = "HuIgG1 mutant AsnL92Ala (antibody, V domains shown, HuIgG1 mutant, human IgG1; Kabat numbering) VH: EVQLVESGGGLVQPGGSLRLSCAASGYSFTGHWMNWVRQAPGKGLEWVGMIHPSDSETRYNQKFKDRFTISVDKSKNTLYLQMNSLRAEDTAVYYCARGIYFYGTTYFDYWGQGTLVTVSS VL: DIQMTQSPSSLSASVGDRVTITCRASKTISKYLAWYQQKPGKAPKLLIYSGSTLQSGVPSRFSGSGSGTDFTLTISSLQPEDFATYYCQQHAEYPLTFGQGTKVEIKR"
readout_unit = "ratio"
recorded_result = 3.3

[[record]]
binder = "HuIgG1 mutant H2A2 (antibody, V domains shown, HuIgG1 mutant, human IgG1; Kabat numbering) VH: EVQLVESGGGLVQPGGSLRLSCAASGYSFTGHWMNWVRQAPGKGLEWVGMIHPADAETRYNQKFKDRFTISVDKSKNTLYLQMNSLRAEDTAVYYCARGIYFYGTTYFDYWGQGTLVTVSS VL: DIQMTQSPSSLSASVGDRVTITCRASKTISKYLAWYQQKPGKAPKLLIYSGSTLQSGVPSRFSGSGSGTDFTLTISSLQPEDFATYYCQQHNEYPLTFGQGTKVEIK"
readout_unit = "ratio"
recorded_result = 1.1

[[record]]
binder = "HuIgG1 mutant SerH53Ala (antibody, V domains shown, HuIgG1 mutant, human IgG1; Kabat numbering) VH: EVQLVESGGGLVQPGGSLRLSCAASGYSFTGHWMNWVRQAPGKGLEWVGMIHPADSETRYNQKFKDRFTISVDKSKNTLYLQMNSLRAEDTAVYYCARGIYFYGTTYFDYWGQGTLVTVSS VL: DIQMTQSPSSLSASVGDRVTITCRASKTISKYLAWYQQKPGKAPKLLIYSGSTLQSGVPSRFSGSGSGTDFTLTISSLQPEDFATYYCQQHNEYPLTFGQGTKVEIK"
readout_unit = "ratio"
recorded_result = 0.7

[[record]]
binder = "HuIgG1 mutant SerL50Ala (antibody, V domains shown, HuIgG1 mutant, human IgG1; Kabat numbering) VH: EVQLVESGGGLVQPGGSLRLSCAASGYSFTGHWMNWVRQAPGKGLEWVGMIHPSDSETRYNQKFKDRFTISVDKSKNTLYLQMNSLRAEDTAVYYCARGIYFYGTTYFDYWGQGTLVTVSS VL: DIQMTQSPSSLSASVGDRVTITCRASKTISKYLAWYQQKPGKAPKLLIYAGSTLQSGVPSRFSGSGSGTDFTLTISSLQPEDFATYYCQQHNEYPLTFGQGTKVEIKR"
readout_unit = "ratio"
recorded_result = 2.7

[[record]]
binder = "HuIgG1 mutant ThrL53Ala (antibody, V domains shown, HuIgG1 mutant, human IgG1; Kabat numbering) VH: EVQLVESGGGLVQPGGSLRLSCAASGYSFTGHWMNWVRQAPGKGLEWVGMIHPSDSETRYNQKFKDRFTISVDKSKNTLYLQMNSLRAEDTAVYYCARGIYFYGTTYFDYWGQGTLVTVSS VL: DIQMTQSPSSLSASVGDRVTITCRASKTISKYLAWYQQKPGKAPKLLIYSGSALQSGVPSRFSGSGSGTDFTLTISSLQPEDFATYYCQQHNEYPLTFGQGTKVEIKR"
readout_unit = "ratio"
recorded_result = 0.7


From here, focus on the item given below.
Lookup result for HuIgG1 mutant HisH52Ala (antibody, V domains shown, HuIgG1 mutant, human IgG1; Kabat numbering) VH: EVQLVESGGGLVQPGGSLRLSCAASGYSFTGHWMNWVRQAPGKGLEWVGMIAPSDSETRYNQKFKDRFTISVDKSKNTLYLQMNSLRAEDTAVYYCARGIYFYGTTYFDYWGQGTLVTVSS VL: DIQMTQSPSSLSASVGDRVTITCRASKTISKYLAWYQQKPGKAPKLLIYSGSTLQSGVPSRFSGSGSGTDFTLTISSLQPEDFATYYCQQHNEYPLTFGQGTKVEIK ; measured Var.EC50/HuIgG1 EC50: 0.7
